System: Rhizoctonia solani AG-1
Experiment: Fungicidal activity against rice sheath blight (RSB) disease, control value
Conditions: 10 ppm, rice sheath blight
recorded metric: RSB control value (C.V.)

Challenge: Quick one: RSB control value (C.V.) for CNC(=O)/C(=N/OC)c1ccccc1CON=C(C)c1cccc(C=C(Br)Br)c1 ?
Response given: 90%

---

Tested on: Rhizoctonia solani AG-1
Experiment: Fungicidal activity against rice sheath blight (RSB) disease, control value
Settings: Rhizoctonia solani, AG1, in Oryza sativa, read-out: RSB control value (C.V.)
recorded metric: pest or weed control at 10 ppm (%)
The answer is to be given in %; state only the numeric part.

Please review the following examples before continuing.
Challenge: Quick one: pest or weed control at 10 ppm for CNC(=O)/C(=N/OC)c1ccccc1COc1ccc(F)cc1C=C(Cl)Cl [Example 56] ?
Response given: 100

Challenge: And then CNC(=O)/C(=N/OC)c1ccccc1COc1cccc(C=C(Cl)Br)c1 [Example 16] , what is it?
Response given: 98

More entries:
Challenge: Quick one: pest or weed control at 10 ppm for CNC(=O)/C(=N/OC)c1ccccc1COc1cc(C=C(Cl)Cl)ccc1OC [Example 48] ?
Response given: 98

Challenge: And then CNC(=O)/C(=N/OC)c1ccccc1COc1cc(Br)ccc1C=C(Cl)Cl [Example 62] , what is it?
Response given: 100

---

Reported pest or weed control at 2 ppm by item:
System: Erysiphae graminis
Test: Fungicidal activity against barley powdery mildew (BPM) disease, control value
Type: in vivo
Details: Hordeum vulgare, 168 h; 2 ppm, barley powdery mildew; read-out: BPM control value (C.V.)
The answer is to be given in %; state only the numeric part.

Challenge: Quick one: pest or weed control at 2 ppm for CO/N=C(/C(=O)OC)c1ccccc1COc1ccc(C=C(Cl)Cl)cc1Cl ?
Response given: 100

Challenge: And then CNC(=O)/C(=N/OC)c1ccccc1COc1c(C)cccc1C=C(Cl)Cl , what is it?
Response given: 100

Challenge: And then CNC(=O)/C(=N/OC)c1ccccc1COc1ccc(C)cc1C=C(Cl)Cl , what is it?
Response given: 100

Challenge: And then CNC(=O)/C(=N/OC)c1ccccc1COc1cccc(C=C(Br)Br)c1 , what is it?
Response given: 0

More entries:
Challenge: Quick one: pest or weed control at 2 ppm for CNC(=O)/C(=N/OC)c1ccccc1COc1ccc(C=C(Cl)Cl)cc1 ?
Response given: 100

Challenge: And then CNC(=O)/C(=N/OC)c1ccccc1COc1ccc(C=C(Br)Br)cc1 , what is it?
Response given: 99

Challenge: And then CNC(=O)/C(=N/OC)c1ccccc1COc1cc(C=C(Cl)Cl)ccc1OC , what is it?
Response given: 99

Challenge: And then CO/N=C(/C(=O)OC)c1ccccc1COc1ccc(C)cc1C=C(Cl)Cl , what is it?
Response given: 100

Challenge: And then CNC(=O)/C(=N/OC)c1ccccc1COc1cccc(C=C(Cl)Cl)c1Cl , what is it?
Response given: 100

---

System: Erysiphae graminis
Assay: Fungicidal activity against barley powdery mildew (BPM) disease, control value
Type: in vivo
Conditions: 10 ppm, barley powdery mildew
Reported BPM control value (C.V.) by item:
The answer is to be given in %; state only the numeric part.

Challenge: Quick one: BPM control value (C.V.) for CNC(=O)/C(=N/OC)c1ccccc1CON=C(C)c1cccc(C=C(Cl)Br)c1 [Example 36] ?
Response given: 100

Challenge: And then CNC(=O)/C(=N/OC)c1ccccc1CON=C(C)c1ccc(C=C(Cl)Br)cc1 [Example 38] , what is it?
Response given: 98

Challenge: And then CNC(=O)/C(=N/OC)c1ccccc1CON=C(C)c1cccc(C=C(Br)Br)c1 [Example 24] , what is it?
Response given: 60

Challenge: And then CO/N=C(/C(=O)OC)c1ccccc1CON=C(C)c1cccc(C=C(F)F)c1 [Example 27] , what is it?
Response given: 100

Challenge: And then CO/N=C(/C(=O)OC)c1ccccc1CON=C(C)c1cccc(C=C(Cl)Br)c1 [Example 35] , what is it?
Response given: 60

Challenge: And then CNC(=O)/C(=N/OC)c1ccccc1CON=C(C)c1ccc(C=C(Br)Br)cc1 [Example 26] , what is it?
Response given: 100

Challenge: And then CO/N=C(/C(=O)OC)c1ccccc1CON=C(C)c1cccc(C=C(Cl)Cl)c1 [Example 19] , what is it?
Response given: 100

Next item in the queue.
Challenge: Quick one: BPM control value (C.V.) for CO/N=C(/C(=O)OC)c1ccccc1CON=C(C)c1cccc(C=C(Br)Br)c1 [Example 23] ?
Response given: 50

---

Reported RCB control value (C.V.) by item:
Tested on: Pyricularia oryzae Carvara KA301
Assay: whole plant or invertebrate
Assay type: in vivo
Conditions: 100 ppm, rice blast
Just so you know, I need the unit written after the number.

Challenge: Quick one: RCB control value (C.V.) for CO/N=C(/C(=O)OC)c1ccccc1CON=C(C)c1ccc(C=C(F)F)cc1 [Example 29] ?
Response given: 100%

Challenge: And then CO/N=C(/C(=O)OC)c1ccccc1CON=C(C)c1cccc(C=C(F)Cl)c1 [Example 31] , what is it?
Response given: 95%

Challenge: And then CNC(=O)/C(=N/OC)c1ccccc1CON=C(C)c1cccc(C=C(F)Cl)c1 [Example 32] , what is it?
Response given: 97%

Challenge: And then CNC(=O)/C(=N/OC)c1ccccc1CON=C(C)c1cccc(C=C(Cl)Cl)c1 [Example 20] , what is it?
Response given: 100%

More entries:
Challenge: Quick one: RCB control value (C.V.) for CO/N=C(/C(=O)OC)c1ccccc1CON=C(C)c1ccc(C=C(F)Cl)cc1 [Example 33] ?
Response given: 95%

Challenge: And then CO/N=C(/C(=O)OC)c1ccccc1CON=C(C)c1cccc(C=C(F)F)c1 [Example 27] , what is it?
Response given: 100%

---

System: Phytophthora infestans
Assay: whole plant or invertebrate
Assay type: in vivo
Conditions: Phytophthora infestans, in Solanum lycopersicum, read-out: TLB control value (C.V.)
recorded metric: pest or weed control at 2 ppm (%)
The answer is to be given in %; state only the numeric part.

Please review the following examples before continuing.
Challenge: Requested read-out pest or weed control at 2 ppm, target or system Phytophthora infestans, entry CO/N=C(/C(=O)OC)c1ccccc1COc1cccc(C=C(Cl)Cl)c1Cl
Response given: 100

Challenge: And then CO/N=C(/C(=O)OC)c1ccccc1COc1ccc(C=C(Cl)Cl)c(Cl)c1 , what is it?
Response given: 99

Challenge: And then CNC(=O)/C(=N/OC)c1ccccc1COc1ccc(C=C(Cl)Cl)c(Cl)c1 , what is it?
Response given: 99

Challenge: And then CNC(=O)/C(=N/OC)c1ccccc1COc1cccc(C=C(Br)Br)c1Cl , what is it?
Response given: 100

Challenge: And then CNC(=O)/C(=N/OC)c1ccccc1COc1ccc(C)cc1C=C(Cl)Cl , what is it?
Response given: 96

Next item in the queue.
Challenge: Requested read-out pest or weed control at 2 ppm, target or system Phytophthora infestans, entry CNC(=O)/C(=N/OC)c1ccccc1COc1cc(Br)ccc1C=C(Cl)Cl
Response given: 99

---

Reported pest or weed control at 2 ppm by item:
System: Erysiphae graminis
Experiment: Fungicidal activity against barley powdery mildew (BPM) disease, control value
Type: in vivo
Settings: Hordeum vulgare, 168 h; 2 ppm, barley powdery mildew; read-out: BPM control value (C.V.)
The answer is to be given in %; state only the numeric part.

Please review the following examples before continuing.
Challenge: Quick one: pest or weed control at 2 ppm for CO/N=C(/C(=O)OC)c1ccccc1COc1cc(C=C(Cl)Cl)ccc1OC [Example 47] ?
Response given: 100

Challenge: And then CO/N=C(/C(=O)OC)c1ccccc1COc1c(C)cccc1C=C(Cl)Cl [Example 49] , what is it?
Response given: 100

Challenge: And then CNC(=O)/C(=N/OC)c1ccccc1COc1ccc(C=C(Cl)Cl)cc1Cl [Example 40] , what is it?
Response given: 100

More entries:
Challenge: Quick one: pest or weed control at 2 ppm for CO/N=C(/C(=O)OC)c1ccccc1COc1cccc(C=C(Cl)Cl)c1 [Example 1] ?
Response given: 100

Challenge: And then CO/N=C(/C(=O)OC)c1ccccc1COc1ccc(C=C(Cl)Br)cc1 [Example 17] , what is it?
Response given: 35

---

Reported pest or weed control at 2 ppm by item:
Test system: Puccinia recondita
Assay: Fungicidal activity against wheat leaf rust (WLR) disease, control value
Type: in vivo
Settings: 2 ppm, wheat leaf rust; read-out: WLR control value (C.V.)
Just so you know, I need the unit written after the number.

Please review the following examples before continuing.
Challenge: Quick one: pest or weed control at 2 ppm for CO/N=C(/C(=O)OC)c1ccccc1COc1cccc(C=C(Cl)Br)c1 ?
Response given: 100%

Challenge: And then CNC(=O)/C(=N/OC)c1ccccc1COc1ccc(C=C(Br)Br)cc1 , what is it?
Response given: 90%

Challenge: And then CO/N=C(/C(=O)OC)c1ccccc1COc1ccc(C=C(Cl)Cl)cc1C , what is it?
Response given: 100%

Challenge: And then CNC(=O)/C(=N/OC)c1ccccc1COc1cccc(C=C(Cl)Cl)c1 , what is it?
Response given: 30%

Challenge: And then CNC(=O)/C(=N/OC)c1ccccc1COc1cccc(C=C(Cl)Cl)c1Cl , what is it?
Response given: 100%

More entries:
Challenge: Quick one: pest or weed control at 2 ppm for CNC(=O)/C(=N/OC)c1ccccc1COc1ccc(C=C(Cl)Cl)cc1Cl ?
Response given: 100%

Challenge: And then CNC(=O)/C(=N/OC)c1ccccc1COc1cccc(C=C(Cl)Br)c1 , what is it?
Response given: 100%

Challenge: And then CNC(=O)/C(=N/OC)c1ccccc1COc1ccc(C=C(Cl)Br)cc1 , what is it?
Response given: 100%

Challenge: And then CO/N=C(/C(=O)OC)c1ccccc1COc1ccc(C=C(F)F)cc1 , what is it?
Response given: 100%
